B1: OR4K15 (parent)
chain: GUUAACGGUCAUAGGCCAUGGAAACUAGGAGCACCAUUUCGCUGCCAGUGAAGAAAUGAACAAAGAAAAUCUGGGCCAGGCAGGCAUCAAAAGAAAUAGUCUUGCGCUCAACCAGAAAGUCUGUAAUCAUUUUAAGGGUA

- Variants of: B1
- assayName: self-cleavage, relative activity (ratio to wild type); higher = more cleavage; in vitro, sequencing; the parent is a self-cleaving ribozyme
resultType: self-cleavage

* U97C U132C | 1.45
* U3A A52U | 0.58
* A30G G58A | 0.67
* A59U U72C | 0.17
* A64G A82G | 0.35
* A33U A114G | 0.64
* U37C A118G | 1.36
* A27G U87A | 1.39

Query string: Quick one: self-cleavage for A114C U124C ?
Result string: 0.03

Query string: Param item: C85A C109A
Result string: 0.19

Query string: Would you kindly repeat that for U19C A86U ?
Result string: 1.8

Query string: How about A5G U72C ?
Result string: 0.41

Query string: Do the same for G8A U57A please
Result string: 2.18

Query string: What would you report for A96G U133C ?
Result string: 1.82

Query string: Check A5G U131C too.
Result string: 0.56

Query string: Then what about the variant U2C U87C ?
Result string: 0.43

Query string: Also check A54G A78U
Result string: 0.26

From: the RNAGym collection of RNA variant scans (doi:10.7554/elife.90254)
